Data credit: paper PMC5095872

So I've got a bunch of molecules here, and I need their Hep stability CL b,Hep values.
# method.description: Hepatocyte stability, rat
# Format: in vitro ADME
# run.parameters: rat hepatocytes; well-stirred model
Please respond with the number in mL/min/kg and leave the unit unwritten.

Notebook: Cc1c(NC(=O)c2cc(C(N)=O)nc3cc(F)ccc23)c(C(F)(F)F)nn1Cc1cnc(C#N)cn1 [Compound 57] , Hep stability CL b,Hep read as 20

Notebook: Cc1c(NC(=O)c2cc(C(N)=O)nc3ccccc23)c(C(F)(F)F)nn1Cc1ccc(C#N)cc1 [Compound 13] , Hep stability CL b,Hep read as 30

Notebook: Cc1ccc2nc(C(N)=O)cc(C(=O)Nc3c(C(F)(F)F)nn(Cc4ccc(C#N)cc4)c3C)c2c1 [Compound 17] , Hep stability CL b,Hep read as 33.3

Notebook: Cc1c(NC(=O)c2cc(C(N)=O)nc3cc(F)ccc23)c(C(F)(F)F)nn1Cc1ncc(C#N)cn1 [Compound 58] , Hep stability CL b,Hep read as 14.8

* * *

# method.description: Liver microsome stability, mouse
# Format: in vitro ADME
# run.parameters: mouse liver microsomes; well-stirred model
So I've got a bunch of molecules here, and I need their LM stability CL b,LM values.
Please respond with the number in mL/min/kg and leave the unit unwritten.

Notebook: Cc1ccc2nc(C)cc(C(=O)Nc3c(C)nn(Cc4ccc(F)cc4)c3C)c2c1 [Compound 2] , LM stability CL b,LM read as 66.7

Notebook: Cc1c(NC(=O)c2cc(C(N)=O)nc3cc(F)ccc23)c(C(F)(F)F)nn1Cc1ccc(C#N)cn1 [Compound 54] , LM stability CL b,LM read as 6

Notebook: Cc1c(NC(=O)c2cc(C(N)=O)nc3ccccc23)c(C(F)(F)F)nn1Cc1ccc(C#N)cc1 [Compound 13] , LM stability CL b,LM read as 23.3

Notebook: Cc1ccc2nc(C(N)=O)cc(C(=O)Nc3c(C(F)(F)F)nn(Cc4ccc(C#N)cc4)c3C)c2c1 [Compound 17] , LM stability CL b,LM read as 38.3

Notebook: Cc1c(NC(=O)c2cc(C(F)(F)F)nc3ccc(Br)cc23)c(C(F)(F)F)nn1Cc1ccc(F)cc1 [Compound 12] , LM stability CL b,LM read as 36.7

* * *

# method.description: Hepatocyte stability, rat
# Assay type: in vitro ADME
# run.parameters: rat hepatocytes; well-stirred model
reported.endpoint: Hep stability CL b,Hep (mL/min/kg)
Please respond with the number in mL/min/kg and leave the unit unwritten.

Notebook: `Cc1c(NC(=O)c2cc(C(N)=O)nc3cc(F)ccc23)c(C(F)(F)F)nn1Cc1ccc(C#N)cn1` , Hep stability CL b,Hep read as 0.67

Notebook: `Cc1c(NC(=O)c2cc(C(F)(F)F)nc3ccc(Br)cc23)c(C(F)(F)F)nn1Cc1ccc(F)cc1` , Hep stability CL b,Hep read as 43.3

Notebook: `Cc1ccc2nc(C)cc(C(=O)Nc3c(C)nn(Cc4ccc(F)cc4)c3C)c2c1` , Hep stability CL b,Hep read as 61.7

* * *

# method.description: Liver microsome stability, human
# Format: in vitro ADME
# run.parameters: human liver microsomes; well-stirred model
reported.endpoint: LM stability CL b,LM (mL/min/kg)
Please respond with the number in mL/min/kg and leave the unit unwritten.

Notebook: `Cc1c(NC(=O)c2cc(C(N)=O)nc3ccccc23)c(C(F)(F)F)nn1Cc1ccc(C#N)cc1` , LM stability CL b,LM read as 3.5

Notebook: `Cc1c(NC(=O)c2cc(C(N)=O)nc3cc(F)ccc23)c(C(F)(F)F)nn1Cc1ccc(C#N)cc1` , LM stability CL b,LM read as 5.33

Notebook: `Cc1ccc2nc(C)cc(C(=O)Nc3c(C)nn(Cc4ccc(F)cc4)c3C)c2c1` , LM stability CL b,LM read as 20

Notebook: `Cc1c(NC(=O)c2cc(C(N)=O)nc3cc(F)ccc23)c(C(F)(F)F)nn1Cc1cnc(C#N)cn1` , LM stability CL b,LM read as 8.83

Notebook: `Cc1c(NC(=O)c2cc(C(N)=O)nc3cc(F)ccc23)c(C(F)(F)F)nn1Cc1ccc(C#N)cn1` , LM stability CL b,LM read as 3.17

Notebook: `Cc1c(NC(=O)c2cc(C(N)=O)nc3cc(F)ccc23)c(C(F)(F)F)nn1Cc1ncc(C#N)cn1` , LM stability CL b,LM read as 3.67

Notebook: `Cc1c(NC(=O)c2cc(C(N)=O)nc3cc(F)ccc23)c(C(C)C)nn1Cc1ccc(C#N)cc1` , LM stability CL b,LM read as 14.5
